Test system: LG0567-F671-PDC KRAS tumor spheroid viability;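 further: drug exposure lasted seven days after spheroids formed for three days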
Experiment: Anticancer human tumor LG0567-F671-PDC patient-derived lung adenocarcinoma cell line growth inhibition [KRAS2]
Conditions: second compound 0.316 µM; first compound 0.1 µM; stronger effect = lower value; spheroids with HUVEC and MSC
With a cut-off of 30%, any viability, T/C strictly below it is called condition met; any viability, T/C meeting it or above is called condition not met.

Solved entries:
O=C(c1cc(Cc2n[nH]c(=O)c3ccccc23)ccc1F)N1CCN(C(=O)C2CC2)CC1 + CNCc1ccccc1-c1csc(C(C)Nc2nc(C)nc3cc(OC)c(OC)cc23)c1 ... condition not met
CC(C)NCC(C(=O)N1CCN(c2ncnc3c2C(C)CC3O)CC1)c1ccc(Cl)cc1 (stereo not given) + C=CC(=O)N1CCN(c2nc(=O)n(-c3c(C)ccnc3C(C)C)c3nc(-c4c(O)cccc4F)c(F)cc23)C(C)C1 ... condition met
COc1cc2nccc(Oc3ccc(NC(=O)C4(C(=O)Nc5ccc(F)cc5)CC4)cc3)c2cc1OC + COc1cc2nc(C)nc(NC(C)c3cc(N)cc(C(F)(F)F)c3)c2cc1OC1CCOC1 ... condition not met
Cn1ncnc1[C@H]1c2n[nH]c(=O)c3cc(F)cc(c23)N[C@@H]1c1ccc(F)cc1 + CNCc1ccccc1-c1csc(C(C)Nc2nc(C)nc3cc(OC)c(OC)cc23)c1 ... condition not met

Now consider a different compound.
Input line: Report whether reported viability, T/C is lower than 30% (strictly) for CN(C)C/C=C/C(=O)Nc1cc2c(Nc3ccc(F)c(Cl)c3)ncnc2cc1O[C@H]1CCOC1 + C=CC(=O)N1CCN(c2nc(OCC3CCCN3C)nc3c2CCN(c2cccc4cccc(C)c24)C3)CC1CC#N
Output line: condition met

The origin of these recorded values is PubChem BioAssay AID1963856.
